Source: patent US11491245B2

Assay: Relaxivity measurements at 1.41 T
Format: physicochemical
Settings: human plasma, 1.41 T, 37° C., normalized to Gd
Consider the following molecules and their measured r1 human plasma readings.

{"molecule": "CC(C(=O)NCC(=O)NCC(CNC(=O)CNC(=O)C(C)N1CCN(CC(=O)[O-])CCN(CC(=O)[O-])CCN(CC(=O)[O-])CC1)(CNC(=O)CNC(=O)C(C)N1CCN(CC(=O)[O-])CCN(CC(=O)[O-])CCN(CC(=O)[O-])CC1)CNC(=O)CNC(=O)C(C)N1CCN(CC(=O)[O-])CCN(CC(=O)[O-])CCN(CC(=O)[O-])CC1)N1CCN(CC(=O)[O-])CCN(CC(=O)[O-])CCN(CC(=O)[O-])CC1.[Gd+3].[Gd+3].[Gd+3].[Gd+3] (centres unmarked) [Example 3]", "r1 human plasma": "11.8 L/mmol/s"}
{"molecule": "C[C@H](C(=O)NCC(=O)NCC(CNC(=O)CNC(=O)[C@@H](C)N1CCN(CC(=O)[O-])CCN(CC(=O)[O-])CCN(CC(=O)[O-])CC1)(CNC(=O)CNC(=O)[C@@H](C)N1CCN(CC(=O)[O-])CCN(CC(=O)[O-])CCN(CC(=O)[O-])CC1)CNC(=O)CNC(=O)[C@@H](C)N1CCN(CC(=O)[O-])CCN(CC(=O)[O-])CCN(CC(=O)[O-])CC1)N1CCN(CC(=O)[O-])CCN(CC(=O)[O-])CCN(CC(=O)[O-])CC1.[Gd+3].[Gd+3].[Gd+3].[Gd+3] [Example 3-1]", "r1 human plasma": "10.4 L/mmol/s"}
{"molecule": "O=C([O-])CN1CCN(CC(=O)[O-])CCN(CC(=O)NCC(CNC(=O)CN2CCN(CC(=O)[O-])CCN(CC(=O)[O-])CCN(CC(=O)[O-])CC2)(CNC(=O)CN2CCN(CC(=O)[O-])CCN(CC(=O)[O-])CCN(CC(=O)[O-])CC2)CNC(=O)CN2CCN(CC(=O)[O-])CCN(CC(=O)[O-])CCN(CC(=O)[O-])CC2)CCN(CC(=O)[O-])CC1.[Gd+3].[Gd+3].[Gd+3].[Gd+3] [Example 10]", "r1 human plasma": "9.7 L/mmol/s"}
{"molecule": "C[C@@H](C(=O)NCC(=O)NCC(CNC(=O)CNC(=O)[C@H](C)N1CCN(CC(=O)[O-])CCN(CC(=O)[O-])CCN(CC(=O)[O-])CC1)(CNC(=O)CNC(=O)[C@H](C)N1CCN(CC(=O)[O-])CCN(CC(=O)[O-])CCN(CC(=O)[O-])CC1)CNC(=O)CNC(=O)[C@H](C)N1CCN(CC(=O)[O-])CCN(CC(=O)[O-])CCN(CC(=O)[O-])CC1)N1CCN(CC(=O)[O-])CCN(CC(=O)[O-])CCN(CC(=O)[O-])CC1.[Gd+3].[Gd+3].[Gd+3].[Gd+3] [Example 3-2]", "r1 human plasma": "11.4 L/mmol/s"}

# next molecule below
Prompt: Specify reported r1 human plasma for the molecule shown: CC(C(=O)NCC(=O)N1CCN(C(=O)CNC(=O)C(C)N2CCN(CC(=O)[O-])CCN(CC(=O)[O-])CCN(CC(=O)[O-])CC2)CCN(C(=O)CNC(=O)C(C)N2CCN(CC(=O)[O-])CCN(CC(=O)[O-])CCN(CC(=O)[O-])CC2)CCN(C(=O)CNC(=O)C(C)N2CCN(CC(=O)[O-])CCN(CC(=O)[O-])CCN(CC(=O)[O-])CC2)CC1)N1CCN(CC(=O)[O-])CCN(CC(=O)[O-])CCN(CC(=O)[O-])CC1.[Gd+3].[Gd+3].[Gd+3].[Gd+3] (centres unmarked) [Example 7]
Response: 12.1 L/mmol/s
